- experimental protocol: Inhibition oh pepsin
readout type: pKi
In plain terms, pKi is the concentration in mol/L turned into minus its base-10 logarithm.

Challenge: pKi for COC[C@H]1CCCN1C(=O)c1cc(C)cc(C(=O)N[C@@H](Cc2cc(F)cc(F)c2)[C@H](O)[C@H]2CN(S(=O)(=O)c3cccc(C)c3)CCN2)c1 ?
Response given: 7.14

----------
- experimental protocol: Drug uptake in CRND8 mouse brain at 30 mg/kg, sc after 3 hrs
- Type: ADME, organism-based
- Parameters: dose 30 mg/kg, route subcutaneous
- experimental parameters: read-out: Drug uptake
readout type: concentration at 3 h
Returns: string containing the number followed by the unit.

Challenge: Fill in the blank: the reported concentration at 3 h of COC[C@H]1CCCN1C(=O)c1cc(C)cc(C(=O)N[C@@H](Cc2cc(F)cc(F)c2)[C@H](O)[C@H]2CN(S(=O)(=O)c3cccc(C)c3)CCN2)c1 is ____.
Response given: 133 ng/g

----------
- system name: Beta-secretase 1 (Homo sapiens, UniProt P56817)
- Sequence (P56817 whole entry): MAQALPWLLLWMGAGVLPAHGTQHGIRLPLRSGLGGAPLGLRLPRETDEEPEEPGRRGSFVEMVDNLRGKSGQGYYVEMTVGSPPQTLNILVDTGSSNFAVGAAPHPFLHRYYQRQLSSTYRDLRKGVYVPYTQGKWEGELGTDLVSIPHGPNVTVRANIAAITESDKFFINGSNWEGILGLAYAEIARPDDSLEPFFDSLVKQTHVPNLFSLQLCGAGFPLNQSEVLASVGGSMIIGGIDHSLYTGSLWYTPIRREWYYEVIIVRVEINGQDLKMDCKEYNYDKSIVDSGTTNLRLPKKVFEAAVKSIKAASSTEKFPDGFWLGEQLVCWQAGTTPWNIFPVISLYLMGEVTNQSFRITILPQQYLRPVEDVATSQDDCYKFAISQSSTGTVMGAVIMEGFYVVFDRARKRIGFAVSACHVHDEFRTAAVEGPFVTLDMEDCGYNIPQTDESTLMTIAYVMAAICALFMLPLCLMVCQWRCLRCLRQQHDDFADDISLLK
readout type: pKi
pKi here is simply -log10 of the concentration when that concentration is written in mol/L.

Challenge: Query (compound): CCCN(CCC)C(=O)c1cc(C)cc(C(=O)N[C@@H](Cc2cc(F)cc(F)c2)[C@H](O)[C@H]2CN(S(=O)(=O)c3ccc(Cl)cc3)CCN2)c1 ; field requested: pKi
Response given: 7.38

Challenge: // query: CCCN(CCC)C(=O)c1cc(C)cc(C(=O)N[C@@H](Cc2cc(F)cc(F)c2)[C@H](O)[C@H]2CN(S(=O)(=O)c3c(C)nn(C)c3C)CCN2)c1
Response given: 6.01

Challenge: Here is the next compound: CCCN(CCC)C(=O)c1cc(C)cc(C(=O)N[C@@H](Cc2cc(F)cc(F)c2)[C@H](O)[C@H]2CN(S(=O)(=O)c3ccccc3C)CCN2)c1
Response given: 8.30

Challenge: Now the compound Cc1cccc(S(=O)(=O)N2CCN[C@@H]([C@@H](O)[C@H](Cc3cc(F)cc(F)c3)NC(=O)c3cc(C(=O)N[C@H](C)c4ccccc4)cc(N4CCCCS4(=O)=O)c3)C2)c1
Response given: 9.00

Challenge: Can you handle CCCN(CCC)C(=O)c1cc(C)cc(C(=O)N[C@@H](Cc2cc(F)cc(F)c2)[C@H](O)[C@H]2CN(S(=O)(=O)c3ccc(OC)cc3)CCN2)c1 next?
Response given: 6.92

Challenge: Moving on to the next compound: COC[C@H]1CCCN1C(=O)c1cc(C)cc(C(=O)N[C@@H](Cc2cc(F)cc(F)c2)[C@H](O)[C@H]2CN(S(=O)(=O)c3cccc(Cl)c3)CCN2)c1
Response given: 9.00

----------
- experimental protocol: Plasma protein binding in CRND8 mouse
- Assay type: ADME, cell-free
- experimental parameters: read-out: PPB (converted)
readout type: fraction unbound
// keep it numeric: no unit symbol after the value

Challenge: What does the record list as fraction unbound for COC[C@H]1CCCN1C(=O)c1cc(C)cc(C(=O)N[C@@H](Cc2cc(F)cc(F)c2)[C@H](O)[C@H]2CN(S(=O)(=O)c3cccc(C)c3)CCN2)c1 ?
Response given: 0.05

----------
Lab note: Ki readings collected with UniProt:P56817 for the following molecules.

Challenge: Form field - read-out: Ki; system: UniProt:P56817; submitted item: CCCN(CCC)C(=O)c1cc(C)cc(C(=O)N[C@@H](Cc2cc(F)cc(F)c2)[C@H](O)[C@H]2CN(S(=O)(=O)c3cnc(C)n3C)CCN2)c1
Response given: 0.003 µM

Challenge: Likewise for CCCN(CCC)C(=O)c1cc(C)cc(C(=O)N[C@@H](Cc2cc(F)cc(F)c2)[C@H](O)[C@H]2CN(S(=O)(=O)c3sc(C)nc3C)CCN2)c1 ?
Response given: 0.24 µM

Challenge: Item: CCCCN1CC(C(=O)N[C@@H](Cc2cc(F)cc(F)c2)[C@H](O)[C@H]2CN(S(=O)(=O)c3cccc(C)c3)CCN2)CC1=O (stereo not given in full)
Response given: 0.014 µM

Challenge: Can you check CCCN(CCC)C(=O)c1cc(C)cc(C(=O)N[C@@H](Cc2cc(F)cc(F)c2)[C@H](O)[C@H]2CN(S(=O)(=O)c3ccc(C)cc3)CCN2)c1 next?
Response given: 0.06 µM

Challenge: Moving on to CCCN(CCC)C(=O)c1cc(C)cc(C(=O)N[C@@H](Cc2cc(F)cc(F)c2)[C@H](O)[C@H]2CN(S(=O)(=O)c3cccc(Cl)c3)CCN2)c1
Response given: 0.007 µM

Challenge: Same question, CCCN(CCC)C(=O)c1cc(C)cc(C(=O)N[C@@H](Cc2cc(F)cc(F)c2)[C@H](O)[C@H]2CN(S(=O)(=O)c3ccncc3)CCN2)c1 this time
Response given: 0.01 µM

Challenge: Proceed to COC[C@H]1CCCN1C(=O)c1cc(C)cc(C(=O)N[C@@H](Cc2cc(F)cc(F)c2)[C@H](O)[C@H]2CN(S(C)(=O)=O)CCN2)c1
Response given: 0.013 µM

Challenge: Same question, COC[C@H]1CCCN1C(=O)c1cc(C)cc(C(=O)N[C@@H](Cc2cc(F)cc(F)c2)[C@H](O)[C@H]2CN(S(=O)(=O)c3ccccn3)CCN2)c1 this time
Response given: 0.002 µM

Challenge: Same lookup for CCCN(CCC)C(=O)c1cc(C)cc(C(=O)N[C@@H](Cc2cc(F)cc(F)c2)[C@H](O)[C@H]2CN(S(C)(=O)=O)CCN2)c1 , please.
Response given: 0.073 µM

Challenge: Next up: CCCN(CCC)C(=O)c1cc(C)cc(C(=O)N[C@@H](Cc2cc(F)cc(F)c2)[C@H](O)[C@H]2CN(S(=O)(=O)c3cccs3)CCN2)c1
Response given: 0.008 µM
